tested on: COLO 205 colon; assay: NCI tumour cell line growth inhibition, 48 h
Catalogue of compounds with associated TGI
quantity_name: TGI (µM)

COc1cc(-c2cc(-c3ccc(Nc4ccnc5cc(Cl)ccc45)cc3)nc(N3CCOCC3)n2)cc(OC)c1OC
9.36
COc1cc(C2c3cc4c(cc3OC(Nc3ccccc3)C2C)OCO4)cc(OC)c1O (stereo not given)
33.5

----------
test system: NCI/ADR-RES ovarian; assay: NCI tumour cell line growth inhibition, 48 h
quantity_name: TGI (µM)

CCN(Cc1ccc(F)cc1)c1ccc(CO)c(C)c1
53.5
COC(=O)C1=C(OC(=O)/C=C/c2ccccc2)C(C(=O)OC)[C@@]2(O)[C@@H](C(=O)OC)[C@H](C)C[C@@H]1[C@@H]2C(=O)OC (some centres undefined)
41.5
CSc1cc(-c2ccccn2)nc(-c2ccccn2)c1
1
CC(=O)c1c(CN(C)c2ccccc2)n([O-])c2ccccc2[n+]1=O
55.9
